EXPERIMENTAL PROTOCOL: General cytotoxicity on HepG2 cells (CC50; therapeutic index CC50 HepG2/IC50 Mino)
Format: cell-based
EXPERIMENTAL CONTEXT: human, HepG2 cells (hepatocellular carcinoma); Table 10; 72 hours, Alamar Blue; average of several tests
We'd kindly ask you to apply these CC50 at 72 h classes: lo = under 30 µM, mid = from 30 µM up to 40 µM, hi = 40 µM and over

[[record]]
compound_structure = "C=CC(=O)N1CCC[C@@H](n2nc(-c3ccc(Oc4ccncc4)cc3)c3cc(O)cc(C#N)c32)C1"
group = "hi"

[[record]]
compound_structure = "C=CC(=O)N1CCC[C@@H](n2nc(-c3ccc(-n4ccc(=O)cc4)cc3)c3c(Cl)c(O)cnc32)C1"
group = "hi"

[[record]]
compound_structure = "C=CC(=O)N1CCC[C@@H](n2nc(-c3ccc(-n4ccc(=O)cc4)cc3F)c3cncc(Cl)c32)C1"
group = "hi"

[[record]]
compound_structure = "C=CC(=O)N1CCC[C@@H](n2nc(-c3ccc(C(=O)Nc4cc(C(F)(F)CC)ccn4)cc3)c3cncc(Cl)c32)C1"
group = "hi"

[[record]]
compound_structure = "C=CC(=O)N1CCC[C@@H](n2nc(-c3ccc(Oc4ccncc4C#N)cc3)c3c(N)ncc(Cl)c32)C1"
group = "mid"

[[record]]
compound_structure = "C=CC(=O)N1CCC[C@@H](n2nc(-c3ccc(-n4ccc(=O)cc4)cc3)c3cc(N)c(C)nc32)C1"
group = "hi"

[[record]]
compound_structure = "CC#CC(=O)N1CC(n2nc(-c3ccc(Oc4ccncc4)cc3)c3cncc(Cl)c32)C1"
group = "lo"

[[record]]
compound_structure = "C=CC(=O)N1CCC[C@@H](n2nc(-c3ccc(C(=O)Nc4ccccn4)cc3)c3c(N)ncc(OC)c32)C1"
group = "hi"

[[record]]
compound_structure = "CC#CC(=O)N1CC[C@H](n2nc(-c3ccc(Oc4ccncc4)cc3)c3cncc(Cl)c32)C1"
group = "lo"

[[record]]
compound_structure = "C=CC(=O)N1CCC[C@@H](n2nc(-c3ccc(Oc4ccncc4C#N)cc3)c3cncc(Cl)c32)C1"
group = "mid"

[[record]]
compound_structure = "C=CC(=O)N1CCC[C@@H](n2nc(-c3ccc(Oc4cncc(C(N)=O)c4)cc3)c3cncc(Cl)c32)C1"
group = "hi"

[[record]]
compound_structure = "C=CC(=O)N1CCC[C@@H](n2nc(-c3ccc(C(=O)Nc4ccccn4)cc3)c3c(N)ncc(C#N)c32)C1"
group = "mid"

[[record]]
compound_structure = "C=CC(=O)N1CCC[C@@H](n2nc(-c3ccc(C(=O)Nc4cc(C(F)(F)CCC)ccn4)cc3)c3cncc(Cl)c32)C1"
group = "hi"

